Values from the RNAGym collection of RNA variant scans (doi:10.1002/anie.201605470)

self-cleavage values by entry
B1: Osa-1-4 twister ribozyme (parent)
chain: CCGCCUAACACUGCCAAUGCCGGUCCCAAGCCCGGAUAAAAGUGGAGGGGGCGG

- Variants of: B1
- protocol.notes: self-cleavage, relative activity (ratio to wild type); higher = more cleavage; co-transcriptional
test.readout: self-cleavage

- query.sequence: "CCGCCUUACACUGCCAAUGCCGGUCCCAAGCCCGGAUAAAAGUGGAGGGAGCGG [A7U G50A]"
  test.value: 0.07
- query.sequence: "CCGCCUAACACUGCCAAGCCCGGUCCCAAGCCCGGAUAAAAGUGGAGGGGGCGG [G19C U18G]"
  test.value: 0.91
- query.sequence: "CCGCCUAACACUGCCUAUGCCGGUCCCAAGCCCUGAUAAAAGUGGAGGGGGCGG [A16U G34U]"
  test.value: 0.67
- query.sequence: "CCGCCUAACACUGCCAAUGCCGGUCCCAAGCCCGGGGAAAAGUGGAGGGGGCGG [A36G U37G]"
  test.value: 1.03
- query.sequence: "CCGCCUAACACUGCCAAUUCCGGUCCCCAGCCCGGAUAAAAGUGGAGGGGGCGG [A28C G19U]"
  test.value: 0.35
- query.sequence: "CCGCCUAACACUGCAAAUGCCGGUCCCAAGCCCGCAUAAAAGUGGAGGGGGCGG [C15A G35C]"
  test.value: 0.09
- query.sequence: "CCGCCUAACACUGCCUAUGCCGGUCCCAAGCCCGGAUAAAAGUGGAGGGGGCGG [A16U]"
  test.value: 0.97
- query.sequence: "CCGCCUAACACUGCCAAUGCCGAUCCCAAGCCGGGAUAAAAGUGGAGGGGGCGG [C33G G23A]"
  test.value: 0.05
- query.sequence: "CCGCCUAACACUGCCAAUGCCGUUCCCAUGCCCGGAUAAAAGUGGAGGGGGCGG [A29U G23U]"
  test.value: 0.03
- query.sequence: "CCGCCUAACACUGCCAAUACCGGUCCCAAGCCCGGAUAAAAGUGGAGGGGACGG [G19A G51A]"
  test.value: 0.33
- query.sequence: "CCGCCUAACACUGCCAAUGCCGGUCCCAAGCCCGGUUAACAGUGGAGGGGGCGG [A36U A40C]"
  test.value: 0.08
